Molecular target: Dupixent (IgG4 monoclonal antibody)
Experiment: BLI, biotinylated ligand on sensor; 'Binding affinity (nM)'

- binder: "affinity ligand SEQ ID NO: 173 (designed binder, biotinylated (AviTag system)) MGDEADRWYDQGAAYAARGDYDRAIEYYQRALELDPNNAWAWWELGVAYAARGDYDRAIEYYQRALELDPNDAVAWSRLGHAYAARGDYDRAIEYYQRALELDPNNEVARHLLEVARRAAACGLNDIFEAQKIEWHEHHHHHH"
  Kd / nM: 95
- binder: "affinity ligand SEQ ID NO: 155 (designed binder, biotinylated (AviTag system)) MGDEAERWYDLGAAYAARGDYDRAIEYYQRALEHDPNDAWAWWELGVAYAARGDYDRAIEYYQRALELDTNNAVAWARLGIAYAARGDYDRAIEYYQRALELDPNNEVARGALEYARRARRCHHHHHH"
  Kd / nM: 32
- binder: "affinity ligand SEQ ID NO: 163 (designed binder, biotinylated (AviTag system)) MGHHHHHHDEAERWYDLGAAYAARGDYDRAIEYYQRALELDPNDAWAWWELGVAYAARGDYDRAIEYYQRALELDLNNAVAWARLGIAYAARGDYDRAIEYYQRALELDPNNEVARDALEYARRARRAPKC"
  Kd / nM: 13
